- Study System: Tyrosine-protein phosphatase non-receptor type 2 (Homo sapiens, UniProt P17706)
- Sequence (P17706 whole entry): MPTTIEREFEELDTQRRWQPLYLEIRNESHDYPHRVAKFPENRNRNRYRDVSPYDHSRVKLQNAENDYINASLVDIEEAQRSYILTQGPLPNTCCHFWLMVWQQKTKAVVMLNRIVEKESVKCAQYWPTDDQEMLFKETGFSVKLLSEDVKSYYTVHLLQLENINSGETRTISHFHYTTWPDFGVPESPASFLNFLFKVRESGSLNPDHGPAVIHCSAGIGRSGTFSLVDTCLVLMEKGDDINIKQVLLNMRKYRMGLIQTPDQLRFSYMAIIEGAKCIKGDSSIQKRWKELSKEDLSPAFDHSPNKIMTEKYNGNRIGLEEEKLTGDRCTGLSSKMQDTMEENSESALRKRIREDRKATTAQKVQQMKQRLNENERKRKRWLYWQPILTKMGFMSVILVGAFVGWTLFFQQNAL
- Protocol: Inhibition of human recombinant TCPTP assessed as inhibition of hydrolysis of […] after 10 mins by spectrophotometry
pIC50: −log10 of the molar value.
Property Name: pIC50

(1) CCOS(=O)(=O)/C=C/c1ccc(OCCCCNc2nc(-c3ccccc3Cl)cs2)cc1
(2) CCOS(=O)(=O)/C=C/c1ccc(OC)c(OCCCCNc2nc(-c3ccccc3)c(C)s2)c1
Request: When their pIC50 values are compared, which is larger, 1 or 2 ? Indicate your choice by writing its label.
Response: 1
(1: 5.30, 2: 4.81)

* * *

- Study System: Tyrosine-protein phosphatase non-receptor type 1 (Homo sapiens)
- Protocol: Inhibition of human recombinant PTP1B assessed as inhibition of hydrolysis of […] after 10 mins by spectrophotometry
Property Name: IC50 (µM)

- CCOS(=O)(=O)/C=C/c1ccc(OCCCCNc2nc(-c3ccccc3)c(-c3ccccc3)s2)cc1: 9.6

(P) CCOS(=O)(=O)/C=C/c1ccc(OCc2ccccc2)cc1OCCc1csc(-c2ccccc2)n1
(Q) CCOS(=O)(=O)/C=C/c1ccc(OC)c(OCCCCNc2nc(-c3ccccc3)c(C)s2)c1
Request: So which one has the bigger IC50 here, P or Q ? Refer to your chosen entry by its label in the reply.
Response: P

* * *

- Study System: Tyrosine-protein phosphatase non-receptor type 2 (Homo sapiens, UniProt P17706)
- Protocol: Inhibition of human recombinant TCPTP assessed as inhibition of hydrolysis of […] after 10 mins by spectrophotometry
Property Name: IC50 (µM)

• CCOS(=O)(=O)/C=C/c1ccc(OCCCCNc2nc(-c3ccc(-c4ccccc4)cc3)cs2)cc1 = 15.7

(I) CCOS(=O)(=O)/C=C/c1ccc(OCCCCNc2nc(-c3cccc4ccccc34)cs2)cc1
(II) COS(=O)(=O)/C=C/c1ccc(OCc2ccccc2)cc1OCCc1nc(-c2ccccc2)oc1C
Request: Given the listed items, does I or II have the lesser reported IC50? Use the label to indicate which entry you chose.
Response: I

(1) CCOS(=O)(=O)/C=C/c1ccc(OCCCCNc2nc(-c3ccccc3)c(C)s2)cc1
(2) CCOS(=O)(=O)/C=C/c1ccc(OCCCCNc2nc(-c3ccccc3)c(-c3ccccc3)s2)cc1
(3) CCOS(=O)(=O)/C=C/c1ccc(OC)c(OCCCCNc2nc(-c3ccccc3)cs2)c1
Request: Kindly order the items shown according to IC50, from the highest value down. Quick reminder: the answer is the labels in the order asked.
Response: 2, 1, 3
(2: 23.4 µM, 1: 10.6 µM, 3: 5.7 µM)

* * *

- Species on record: Homo sapiens
- Protocol: Selectivity ratio of IC50 for human recombinant TCPT to IC50 for human recombinant PTP1B
Property Name: Ratio IC50

• CCOS(=O)(=O)/C=C/c1ccc(OCCCCNc2nc(-c3ccccc3F)cs2)cc1 = 2
• CCOS(=O)(=O)/C=C/c1ccc(OCCCCNc2nc(-c3ccccc3Cl)cs2)cc1 = 2
• CCOS(=O)(=O)/C=C/c1ccc(OCCCCNc2nc(-c3ccc(F)cc3)cs2)cc1 = 2
• CCOS(=O)(=O)/C=C/c1ccc(OCCCCNc2nc(-c3cccs3)cs2)cc1 = 2

* * *

- Study System: UniProtKB P18031
- Protocol: Inhibition of human recombinant PTP1B assessed as inhibition of hydrolysis of […] after 10 mins by spectrophotometry
pIC50: −log10 of the molar value.
Property Name: pIC50

Here's what some known entries look like.
* CCOS(=O)(=O)/C=C/c1ccc(OCCCCNc2nc(-c3ccc(-c4ccccc4)cc3)cs2)cc1 | 5.72
* CCOS(=O)(=O)/C=C/c1ccc(OCCCCNc2nc(-c3ccccc3F)cs2)cc1 | 5.60
* CCOS(=O)(=O)/C=C/c1ccc(OCCCCNc2nc(-c3ccc(F)cc3)cs2)cc1 | 5.89

(1) CCOS(=O)(=O)/C=C/c1ccc(OC)c(OCCCCNc2nc(-c3ccccc3)c(-c3ccccc3)s2)c1
(2) CCOS(=O)(=O)/C=C/c1ccc(OCCCCNc2nc(-c3cccc4ccccc34)cs2)cc1
(3) COS(=O)(=O)/C=C/c1ccc(OCc2ccccc2)cc1OCCc1nc(-c2ccccc2)oc1C
Request: Rank by pIC50 (largest to smallest). Your reply should list the labels following the order given in the request.
Response: 2, 1, 3
(2: 5.62, 1: 5.29, 3: 4.61)

* * *

Reported pIC50 values for a set of compounds
- Study System: Tyrosine-protein phosphatase non-receptor type 2 (Homo sapiens, UniProt P17706)
- Protocol: Inhibition of human recombinant TCPTP assessed as inhibition of hydrolysis of […] after 10 mins by spectrophotometry
pIC50: −log10 of the molar value.

The cases that follow already have their pIC50 on record.
• CCOS(=O)(=O)/C=C/c1ccc(OCc2ccccc2)cc1OCCc1nc(-c2ccccc2)oc1C = < 4.00
• CCOS(=O)(=O)/C=C/c1ccc(OCc2cc(-c3ccccc3)on2)cc1 = < 4.00

In the following, a different compound is considered.
Request: // query pIC50 value for entry CCOS(=O)(=O)/C=C/c1ccc(OCCCCNc2nc(-c3ccc(OC)cc3)cs2)cc1
Response: < 4.00

* * *

- Study System: Tyrosine-protein phosphatase non-receptor type 2 (Homo sapiens)
- Protocol: Inhibition of human recombinant TCPTP assessed as inhibition of hydrolysis of […] after 10 mins by spectrophotometry
Property Name: IC50 (µM)

Consider the following illustrative entries.
* CCOS(=O)(=O)/C=C/c1ccc(OCCCCNc2nc(-c3cccs3)cs2)cc1 | 11.2
* CCOS(=O)(=O)/C=C/c1ccc(OCc2ccccc2)cc1OCCc1csc(-c2ccccc2)n1 | 41.2
* CCOS(=O)(=O)/C=C/c1ccc(OCCCCNc2nc(-c3ccccn3)cs2)cc1 | 31.9
* CCOS(=O)(=O)/C=C/c1ccc(OCCCCNc2nc(-c3cccc(OC)c3)cs2)cc1 | 8.2
* CCOS(=O)(=O)/C=C/c1ccc(OCCCNc2nc(-c3ccccc3)cs2)cc1 | 29.5
* CCOS(=O)(=O)/C=C/c1ccc(OCCCCNc2nc(-c3ccc(Br)cc3)cs2)cc1 | 3.6
* CCOS(=O)(=O)/C=C/c1ccc(OCCCCNc2nc(-c3ccccc3F)cs2)cc1 | 6.4
* CCOS(=O)(=O)/C=C/c1ccc(OC)c(OCCCCNc2nc(-c3ccccc3)c(-c3ccccc3)s2)c1 | 11.6

(a) CCOS(=O)(=O)/C=C/c1ccc(OCCCCNc2nc(-c3ccccc3)c(-c3ccccc3)s2)c(OC)c1
(b) CCOS(=O)(=O)/C=C/c1ccc(OCCCCNc2nc(-c3ccccc3)cs2)cc1
(c) CCOS(=O)(=O)/C=C/c1ccc(OCCCCNc2nc(-c3ccc(F)cc3)cs2)cc1
Request: Let's sort these by IC50, smallest first. Go ahead? Arrange the labels as the request states and list them.
Response: a, c, b
(a: 8.6 µM, c: 14.1 µM, b: 26.2 µM)

* * *

- Study System: Tyrosine-protein phosphatase non-receptor type 1 (Homo sapiens)
- Protocol: Inhibition of human recombinant PTP1B assessed as inhibition of hydrolysis of […] after 10 mins by spectrophotometry
Property Name: IC50 (µM)

Examples from the recorded data:
- CCOS(=O)(=O)/C=C/c1ccc(OCCCCNc2nc(-c3ccc(OC)cc3)cs2)cc1: 10.4
- CCOc1ccc(-c2cc(COc3ccc(/C=C/S(=O)(=O)OCC)cc3)no2)cc1: 44.4

(I) CCOS(=O)(=O)/C=C/c1ccc(OCCCCNc2nc(-c3ccccc3)c(C)s2)cc1
(II) CCOS(=O)(=O)/C=C/c1ccc(OCCCCNc2nc(-c3cccc(OC)c3)cs2)cc1
Request: Pick one: I or II . Which one has the lower reported IC50? Choose, then provide that item's label.
Response: II

(I) CCOS(=O)(=O)/C=C/c1ccc(OCCCCNc2nc(-c3ccccc3)c(C)s2)c(OC)c1
(II) CCOS(=O)(=O)/C=C/c1ccc(OCCCCNc2nc(-c3ccccc3)cs2)cc1
(III) CCOS(=O)(=O)/C=C/c1ccc(OCCCCNc2nc(-c3ccccc3Cl)cs2)cc1
(IV) CCOS(=O)(=O)/C=C/c1ccc(OC)c(OCCCCNc2nc(-c3ccccc3)cs2)c1
Request: Sequence the entries by IC50, beginning with the highest number. Output spec: labels arranged per the requested ranking.
Response: II, I, IV, III

* * *

- Study System: Tyrosine-protein phosphatase non-receptor type 1 (Homo sapiens, UniProt P18031)
- Sequence (P18031 whole entry): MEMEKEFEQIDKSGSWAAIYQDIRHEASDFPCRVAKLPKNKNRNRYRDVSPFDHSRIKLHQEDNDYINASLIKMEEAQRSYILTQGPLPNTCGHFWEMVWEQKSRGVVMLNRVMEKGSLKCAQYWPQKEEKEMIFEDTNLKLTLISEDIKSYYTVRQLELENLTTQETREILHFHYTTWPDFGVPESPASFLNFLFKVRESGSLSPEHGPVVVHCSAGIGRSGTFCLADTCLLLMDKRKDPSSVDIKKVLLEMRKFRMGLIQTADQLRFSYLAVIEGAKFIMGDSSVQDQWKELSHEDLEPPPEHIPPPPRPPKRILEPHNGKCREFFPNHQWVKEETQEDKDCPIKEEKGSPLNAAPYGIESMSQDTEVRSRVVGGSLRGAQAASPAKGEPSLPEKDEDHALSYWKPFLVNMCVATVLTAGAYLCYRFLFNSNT
- Protocol: Inhibition of human recombinant PTP1B assessed as inhibition of hydrolysis of […] after 10 mins by spectrophotometry
pIC50: −log10 of the molar value.
Property Name: pIC50

• CCOS(=O)(=O)/C=C/c1ccc(OCCCNc2nc(-c3ccccc3)cs2)cc1 = 4.61
• CCOS(=O)(=O)/C=C/c1ccc(OCCCCNc2nc(-c3ccc(Br)cc3)cs2)cc1 = 5.89
• CCOS(=O)(=O)/C=C/c1ccc(OCCCCNc2nc(-c3ccccn3)cs2)cc1 = 5.82
• CCOS(=O)(=O)/C=C/c1ccc(OCCCCNc2nc(-c3ccccc3)c(-c3ccccc3)s2)c(OC)c1 = 5.59

(P) CCOS(=O)(=O)/C=C/c1ccc(OCCCCNc2nc(-c3cccs3)cs2)cc1
(Q) O=S(=O)(O)C(F)(F)c1ccc(-c2cccc(F)c2)cc1
Request: Compare the recorded pIC50 of P and Q ; state which is larger. Please respond with the label that marks your chosen entry.
Response: Q
(Q: 5.30, P: 5.07)
